The origin of these recorded values is the supplement of paper PMC7125110.

B1: glmS ribozyme (parent)
chain: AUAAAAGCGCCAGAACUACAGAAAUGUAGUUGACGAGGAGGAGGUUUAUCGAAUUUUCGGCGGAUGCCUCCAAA

Variants of: B1
test_protocol: self-cleavage kobs at 160 uM GlcN6P; higher = faster cleavage; RNA array
condition: with glucosamine-6-phosphate
Fewer inactive variants are shown than the library holds.
# reported self-cleavage kobs at 160 uM GlcN6P; entries follow

// solved cases for self-cleavage kobs at 160 uM GlcN6P follow
[
  {
    "mutation_string": "C8A C11G",
    "self-cleavage kobs at 160 uM GlcN6P": "< 1e-05 s⁻¹"
  },
  {
    "mutation_string": "G13A U56G",
    "self-cleavage kobs at 160 uM GlcN6P": "4.73e-05 s⁻¹"
  },
  {
    "mutation_string": "A14C C70A",
    "self-cleavage kobs at 160 uM GlcN6P": "4.49e-05 s⁻¹"
  }
]

What value of measured self-cleavage kobs at 160 uM GlcN6P is listed for G7C ? < 1e-05 s⁻¹

And what about the variant A12U G32A G37A U45A ? < 1e-05 s⁻¹

Another: U30C G43U < 1e-05 s⁻¹

Now try A14C U47A . 0.000213 s⁻¹

Try the variant A6G G7A G43C < 1e-05 s⁻¹

Can you handle U30A A39G A48G C61U next? < 1e-05 s⁻¹

Same question for A12U C58A G60U please. < 1e-05 s⁻¹

Follow-up entry: G44C C61U < 1e-05 s⁻¹

How about A12C U56C ? 6.31e-05 s⁻¹

Lookup G29A G32A G62U < 1e-05 s⁻¹

Can you check A52C G62U next? < 1e-05 s⁻¹

Please give the result for G35A U46A too. < 1e-05 s⁻¹

Then U49C C67G ? < 1e-05 s⁻¹

Could you do the same for A6U G7U G35U U54A , please? < 1e-05 s⁻¹

Try this variant next: A15U G38U < 1e-05 s⁻¹

Entry to check: A12G U54G 6.55e-05 s⁻¹
